Every entry's value here was drawn from patent US20220306751A1.

- TEST TARGET: T1, CD123 Protein, His Tag, Acro Biosciences Cat. No. ILA-H52H6 (Homo sapiens (Human), UniProt P26951 19-305)
- T1 construct: Bought protein; not shown: His tag
- T1 sequence: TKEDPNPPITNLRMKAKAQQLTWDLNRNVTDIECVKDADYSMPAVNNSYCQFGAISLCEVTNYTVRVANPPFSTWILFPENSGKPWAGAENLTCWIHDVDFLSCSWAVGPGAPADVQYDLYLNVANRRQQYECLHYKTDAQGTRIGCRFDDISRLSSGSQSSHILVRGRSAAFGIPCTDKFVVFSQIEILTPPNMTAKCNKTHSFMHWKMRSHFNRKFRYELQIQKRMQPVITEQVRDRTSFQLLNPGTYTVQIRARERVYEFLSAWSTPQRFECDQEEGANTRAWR
- TEST PROTOCOL: BLI, IgG on anti-human Fc sensor, 50 nM CD123, pH 7.4 and pH 5.4
PROPERTY LABEL: binding result

Some entries whose results are on file:
For the binder MYT1448 (antibody, V domains shown, IgG) VH: QVQLVQSGAEVKKPGASVKMSCKASGYTFTDYYMKWVKQAPGQGLEWIGDIIPSNGATFYNQKFKGKATLTVDRSISTAYMHLNRLRSDDTAVYYCTRSHLLRHSWFAYWGQGTLVTVSS VL: DFVMTQSPDSLAVSLGERATINCKSSQSLLNSGNQKNYLTWYLQKPGQPPKLLIYWASTRESGVPDRFSGSGSGTDFTLTISSLQAEDVAVYYCQNDYSYPYTFGQGTKLEIK , what binding result is on record? binds

For the binder MYT1292 (antibody, V domains shown, IgG) VH: QVQLVQSGAEVKKPGASVKVSCKASGYIFTSSIMHWVRQAPGQGLEWIGYIKPYNDGTKYNEKFKGRATLTSDRSTSTAYMELSSLRSEDTAVYYCAREGGNDYYDTMDHWGQGTLVTVSS VL: DIQMTQSPSSLSASVGDRVTITCRASQDINSYLSWFQQKPGKAPKTLIYRVNRLVDGVPSRFSGSGSGNDYTLTISSLQPEDFATYYCLQYDAFPYTFGQGTKVEIK , what binding result is on record? binds

For the binder MYT1437 (antibody, V domains shown, IgG) VH: QVQLVQSGAEVKKPGASVKMSCKASGYTFTDYYMKWVKQAPGQGLEWIGDIIPSNGATFYNQHFKGKATLTVDRSISTAYMHLNRLRSDDTAVYYCTRSHLLRASWFAYWGQGTLVTVSS VL: DFVMTQSPDSLAVSLGERATINCKSSQSLLNSGNQKNYLTWYLQKPGQPPKLLIYWASTRESGVPDRFSGSGSGTDFTLTISSLQAEDVAVYYCQNDYSYPYTFGQGTKLEIK , what binding result is on record? binds

For the binder MYT1432 (antibody, V domains shown, IgG) VH: QVQLVQSGAEVKKPGASVKMSCKASGYTFTDYYMKWVKQAPGQGLEWIGDIIPSNGAHFYNQKFKGKATLTVDRSISTAYMHLNRLRSDDTAVYYCTRSHLLRASWFAYWGQGTLVTVSS VL: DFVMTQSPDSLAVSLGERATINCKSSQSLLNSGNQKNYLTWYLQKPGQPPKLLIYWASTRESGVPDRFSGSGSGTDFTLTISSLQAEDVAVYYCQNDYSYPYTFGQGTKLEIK , what binding result is on record? binds

New cases:
For the binder MYT1436 (antibody, V domains shown, IgG) VH: QVQLVQSGAEVKKPGASVKMSCKASGYTFTDYYMKWVKQAPGQGLEWIGDIIPSNGATFYNHKFKGKATLTVDRSISTAYMHLNRLRSDDTAVYYCTRSHLLRASWFAYWGQGTLVTVSS VL: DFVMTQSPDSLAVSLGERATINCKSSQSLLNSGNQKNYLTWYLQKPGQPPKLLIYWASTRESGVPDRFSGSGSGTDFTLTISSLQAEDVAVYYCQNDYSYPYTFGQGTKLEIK , what binding result is on record? binds

For the binder MYT2792 (antibody, V domains shown, IgG) VH: QVQLVQSGAEVKKPGASVKVSCKASGYIFTSSIMHWVRQAPGQGLEWIGYIKPYNDGTKYNEKFKGRATLTSDRSTSTAYMELSSLRSEDTAVYYCAREGGNDYYDTMDYWGQGTLVTVSS VL: DIQMTQSPSSLSASVGDRVTITCRASQDINSYLSWFQQKPGKAPKTLIYRVNRLVDGVPSRFSGSGSGNDYTLTISSLQPEDFATYYCLHYDAFPYTFGQGTKVEIK , what binding result is on record? binds

For the binder MYT2783 (antibody, V domains shown, IgG) VH: QVQLVQSGAEVKKPGASVKVSCKASGYIFTSSIMHWVRQAPGQGLEWIGYIKPYNDGTKYNEKFKGRATLTSDRSTSTAYMELSSLRSEDTAVYYCAREGGNDYYDTMDYWGQGTLVTVSS VL: DIQMTQSPSSLSASVGDRVTITCRASQDINSYLHWFQQKPGKAPKTLIYRVNRLVDGVPSRFSGSGSGNDYTLTISSLQPEDFATYYCLQYDAFPYTFGQGTKVEIK , what binding result is on record? binds

For the binder MYT1435 (antibody, V domains shown, IgG) VH: QVQLVQSGAEVKKPGASVKMSCKASGYTFTDYYMKWVKQAPGQGLEWIGDIIPSNGATFYHQKFKGKATLTVDRSISTAYMHLNRLRSDDTAVYYCTRSHLLRASWFAYWGQGTLVTVSS VL: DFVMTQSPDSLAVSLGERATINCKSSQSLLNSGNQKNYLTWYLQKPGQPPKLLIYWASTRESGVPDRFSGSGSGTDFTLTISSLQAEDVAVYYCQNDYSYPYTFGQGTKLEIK , what binding result is on record? binds

For the binder MYT2775 (antibody, V domains shown, IgG) VH: QVQLVQSGAEVKKPGASVKVSCKASGYIFTSSIMHWVRQAPGQGLEWIGYIKPYNDGTKYNEKFKGRATLTSDRSTSTAYMELSSLRSEDTAVYYCAREGGNDYYDTMDYWGQGTLVTVSS VL: DIQMTQSPSSLSASVGDRVTITCRAHQDINSYLSWFQQKPGKAPKTLIYRVNRLVDGVPSRFSGSGSGNDYTLTISSLQPEDFATYYCLQYDAFPYTFGQGTKVEIK , what binding result is on record? binds

For the binder MYT2754 (antibody, V domains shown, IgG) VH: QVQLVQSGAEVKKPGASVKVSCKASGHIFTSSIMHWVRQAPGQGLEWIGYIKPYNDGTKYNEKFKGRATLTSDRSTSTAYMELSSLRSEDTAVYYCAREGGNDYHDTMDYWGQGTLVTVSS VL: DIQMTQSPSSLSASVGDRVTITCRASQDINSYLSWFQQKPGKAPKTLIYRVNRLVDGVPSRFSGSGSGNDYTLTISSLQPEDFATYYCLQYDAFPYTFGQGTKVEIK , what binding result is on record? binds
